System: NCI-H1944
Test: normalised cell viability (NPI; 0 = phenylarsine oxide control, 1 = DMSO control) (fraction of DMSO control); NCI-H1944 is a non-small cell lung cancer line; higher = more viable cells (less compound toxicity)
Conditions: glucocorticoid arm: hydrocortisone 2.75 uM co-treatment; compound 5 µM; 6 days
Counter-ions that a name gives are not always drawn. Whole data set: some 1,900 compounds, median “normalised cell viability (NPI; 0 = phenylarsine oxide control, 1 = DMSO control)” near 1, cut for the lowest 2% near 0.039. The list comes from a sample in which the lowest values are over-represented; it also holds close analogues and randomly drawn compounds.
measured_property: normalised cell viability
// response body must contain only the number

Lookup: Fill in the recorded normalised cell viability for this molecule, with NCI-H1944 as test system: CC(C)C[C@H](NC(=O)[C@H](Cc1ccccc1)NC(=O)c1cnccn1)B(O)O [Bortezomib]
Found: 0.0356

Lookup: Give NCI-H1944 normalised cell viability for CN(C)CCC(c1ccc(Br)cc1)c1ccccn1 (single isomer, unassigned; (+)) [(+)-Brompheniramine maleate]
Found: 1.02

Lookup: Checklist item: normalised cell viability tested on NCI-H1944, entry CC(C)C[C@H](NC(=O)[C@@H](O)[C@H](N)Cc1ccccc1)C(=O)O [Bestatin hydrochloride] , value?
Found: 1.02

Lookup: API: value(readout=normalised cell viability, system=NCI-H1944) for record CO[C@H](C(=O)[C@@H](O)[C@@H](C)O)[C@@H]1Cc2cc3cc(O[C@H]4C[C@@H](O[C@H]5C[C@@H](O)[C@H](O)[C@@H](C)O5)[C@H](O)[C@@H](C)O4)c(C)c(O)c3c(O)c2C(=O)[C@H]1O[C@H]1C[C@@H](O[C@H]2C[C@@H](O[C@H]3C[C@](C)(O)[C@H](O)[C@@H](C)O3)[C@@H](O)[C@@H](C)O2)[C@H](O)[C@@H](C)O1 [Plicamycin]
Found: 0.0276

Lookup: Value wanted: normalised cell viability (NCI-H1944) of entry N=C(N)NCCCCNC(=N)N [Arcaine sulfate]
Found: 0.994

Lookup: Test system NCI-H1944; read-out normalised cell viability; what value for C=CS(=O)(=O)NC1CCN(C(=O)CNc2cc(I)c(Cl)cc2OC)CC1 [K-Ras(G12C) inhibitor 9] ?
Found: 1.07

Lookup: Give recorded normalised cell viability with NCI-H1944 for the following molecule: `Cc1ccc([N+](=O)[O-])cc1S(=O)(=O)N(C)/N=C/c1cnc2ccc(Br)cn12`
Found: 0.0304

Lookup: Record CC(/C=C/c1cccc(Oc2ccc(F)cc2)c1)N(O)C(N)=O (centres undefined) : what is its normalised cell viability with NCI-H1944?
Found: 1.07

Lookup: I'm curious: which normalised cell viability was measured for `CC(=O)NCC(=O)N1[C@@H]2CC[C@H]1c1ccc(Nc3ncc(C(F)(F)F)c(NC4CCC4)n3)cc12` tested on NCI-H1944?
Found: 0.552

Lookup: Report normalised cell viability for C/C=C1\NC(=O)[C@H]2CSSCC/C=C/[C@H](CC(=O)N[C@H](C(C)C)C(=O)N2)OC(=O)[C@H](C(C)C)NC1=O [Romidepsin] tested on NCI-H1944.
Found: 1.02

Lookup: Please state recorded normalised cell viability (tested on NCI-H1944) of `O=C(NCc1cccc(O)c1)Nc1nc(-c2ccncc2)cs1`
Found: 0.978

Lookup: // fetch NCI-H1944 normalised cell viability for CC(C)C[C@H](NC(=O)[C@H](O)[C@H](N)Cc1ccccc1)C(=O)O [Epibestatin hydrochloride]
Found: 0.995

Lookup: Form: Entry = C[C@H]1c2cccc(O)c2C(O)=C2C(=O)[C@]3(O)C(O)=C(C(N)=O)C(=O)[C@@H](N(C)C)[C@@H]3[C@@H](O)[C@@H]21 [Doxycycline HCl] | System = NCI-H1944 | normalised cell viability = ____;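 also: CTB read-out in 384-well plates, triplicate wells, NPI normalised per plate against 1 µM phenylarsine oxide (0) and 0.1% DMSO (1) controls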
Found: 0.986

Lookup: Which normalised cell viability is reported with NCI-H1944 for this entry: C/C=C1\NC(=O)[C@H]2CSSCC/C=C/[C@H](CC(=O)N[C@H](C(C)C)C(=O)N2)OC(=O)[C@H](C(C)C)NC1=O [Depsipeptide] ?
Found: 1.05
